- System: HepG2
- experiment-summary: Cytotoxicity against human HepG2 cells assessed as cell growth inhibition measured after 24 hrs by MTT assay
- Type: functional, cell-based
- condition-label: HepG2, 24 h
Listing: IC50 of selected compounds
assay-readout: IC50

smiles_string=C[C@@H]1CC[C@@]2(OC1)O[C@H]1C[C@H]3[C@@H]4CC=C5C[C@@H](OC(=O)CCC(=O)N6CCCC6)CC[C@]5(C)[C@H]4CC[C@]3(C)[C@H]1[C@@H]2C observed_result="> 10 µM"
smiles_string=CCS(=O)(=O)N1CCN(C(=O)CCC(=O)O[C@H]2CC[C@@]3(C)C(=CC[C@H]4[C@@H]5C[C@@H]6O[C@]7(CC[C@@H](C)CO7)[C@@H](C)[C@@H]6[C@@]5(C)CC[C@@H]43)C2)CC1 observed_result="> 10 µM"
smiles_string=Cc1ccc(S(=O)(=O)N2CCN(C(=O)CCC(=O)O[C@H]3CC[C@@]4(C)C(=CC[C@H]5[C@@H]6C[C@@H]7O[C@]8(CC[C@@H](C)CO8)[C@@H](C)[C@@H]7[C@@]6(C)CC[C@@H]54)C3)CC2)cc1 observed_result="> 10 µM"
smiles_string=CCN(CC)C(=O)CCC(=O)O[C@H]1CC[C@@]2(C)C(=CC[C@H]3[C@@H]4C[C@@H]5O[C@]6(CC[C@@H](C)CO6)[C@@H](C)[C@@H]5[C@@]4(C)CC[C@@H]32)C1 observed_result="> 10 µM"
smiles_string=C[C@@H]1CC[C@@]2(OC1)O[C@H]1C[C@H]3[C@@H]4CC=C5C[C@@H](OC(=O)CCC(=O)N6CCc7ccccc7C6)CC[C@]5(C)[C@H]4CC[C@]3(C)[C@H]1[C@@H]2C observed_result="> 10 µM"
smiles_string=C=CS(=O)(=O)N1CCN(C(=O)CCC(=O)O[C@H]2CC[C@@]3(C)C(=CC[C@H]4[C@@H]5C[C@@H]6O[C@]7(CC[C@@H](C)CO7)[C@@H](C)[C@@H]6[C@@]5(C)CC[C@@H]43)C2)CC1 observed_result="5.1 µM"
smiles_string=Cc1ccc(C[N+]2(Cc3ccc(C)cc3)CCN(C(=O)CCC(=O)O[C@H]3CC[C@@]4(C)C(=CC[C@H]5[C@@H]6C[C@@H]7O[C@]8(CC[C@@H](C)CO8)[C@@H](C)[C@@H]7[C@@]6(C)CC[C@@H]54)C3)CC2)cc1 observed_result="6.1 µM"
